systemTested: human 5-HT1A receptor (Homo sapiens (Human))
Sequence (P08908 whole entry): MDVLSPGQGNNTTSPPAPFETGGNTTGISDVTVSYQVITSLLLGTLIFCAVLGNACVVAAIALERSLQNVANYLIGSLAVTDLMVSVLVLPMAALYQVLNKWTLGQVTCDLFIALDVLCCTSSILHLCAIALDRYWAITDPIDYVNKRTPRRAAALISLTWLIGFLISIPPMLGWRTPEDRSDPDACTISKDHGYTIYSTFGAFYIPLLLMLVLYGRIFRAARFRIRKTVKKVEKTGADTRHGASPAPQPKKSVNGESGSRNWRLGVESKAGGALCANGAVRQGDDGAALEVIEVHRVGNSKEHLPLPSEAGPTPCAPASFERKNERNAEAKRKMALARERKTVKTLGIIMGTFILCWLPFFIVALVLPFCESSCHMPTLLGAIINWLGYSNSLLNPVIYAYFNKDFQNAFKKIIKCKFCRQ
testReadout: Ki (nM)
// return numeric value only (unit: nM, not printed)

Request: What measured Ki goes with Cc1cccc(C2CCN(CCNC(=O)C3CCCCO3)CC2)n1 (stereo not shown) ?
Response: 6.8

----------
systemTested: hERG channel (Homo sapiens (Human), UniProt Q12809)
Sequence (Q12809 whole entry): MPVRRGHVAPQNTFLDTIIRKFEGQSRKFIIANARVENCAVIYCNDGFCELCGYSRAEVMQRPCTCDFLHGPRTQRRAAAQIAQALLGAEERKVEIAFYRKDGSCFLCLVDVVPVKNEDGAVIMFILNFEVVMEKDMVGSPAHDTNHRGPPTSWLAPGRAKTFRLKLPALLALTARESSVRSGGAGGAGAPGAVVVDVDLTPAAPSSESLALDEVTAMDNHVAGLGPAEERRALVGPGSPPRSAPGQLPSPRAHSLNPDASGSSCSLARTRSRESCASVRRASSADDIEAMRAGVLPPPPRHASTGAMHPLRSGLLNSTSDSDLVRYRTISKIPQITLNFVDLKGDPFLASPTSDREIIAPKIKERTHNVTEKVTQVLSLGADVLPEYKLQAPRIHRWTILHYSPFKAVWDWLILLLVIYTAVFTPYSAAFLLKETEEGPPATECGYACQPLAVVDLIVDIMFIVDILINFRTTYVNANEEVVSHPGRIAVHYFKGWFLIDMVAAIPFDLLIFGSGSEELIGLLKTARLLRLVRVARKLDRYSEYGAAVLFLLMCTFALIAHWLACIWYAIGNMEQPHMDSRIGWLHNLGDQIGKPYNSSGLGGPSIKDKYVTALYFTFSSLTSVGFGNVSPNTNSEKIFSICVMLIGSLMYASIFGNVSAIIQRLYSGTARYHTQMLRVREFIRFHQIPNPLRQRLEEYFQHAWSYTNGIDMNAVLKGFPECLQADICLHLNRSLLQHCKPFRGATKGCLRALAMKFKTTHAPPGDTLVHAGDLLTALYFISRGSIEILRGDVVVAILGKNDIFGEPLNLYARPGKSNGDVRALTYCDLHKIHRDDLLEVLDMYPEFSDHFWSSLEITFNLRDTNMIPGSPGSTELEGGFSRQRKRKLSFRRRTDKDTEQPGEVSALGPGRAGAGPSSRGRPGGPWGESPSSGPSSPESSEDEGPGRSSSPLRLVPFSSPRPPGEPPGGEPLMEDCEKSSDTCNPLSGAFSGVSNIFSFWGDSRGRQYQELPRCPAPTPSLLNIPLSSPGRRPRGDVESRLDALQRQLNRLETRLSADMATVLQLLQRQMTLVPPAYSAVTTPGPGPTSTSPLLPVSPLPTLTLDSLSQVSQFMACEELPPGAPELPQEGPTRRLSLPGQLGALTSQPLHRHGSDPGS
measurementDescription: Test 5-2: activity for inhibiting hERG channel (whole-cell patch clamp, Qube)
assayContext: hERG-CHO cell, auto patch clamp, read-out: hERG inhibition IC50
testReadout: IC50

O=C(NCCN1CCC(c2cccc(C(F)(F)F)n2)CC1)C1CCOC1 (centres unmarked) [Example 25]: > 10 µM

Could you now look at the following compound, please?
Request: Could you share what IC50 was measured for Cc1cccc(C2CCN(CCNC(=O)C3CCCCO3)CC2)n1 (centres unmarked) [Example 20] , tested on hERG channel (Homo sapiens (Human), UniProt Q12809)?
Response: > 10 µM
